Measured IC50, listed per entry for reference.
target: Calpain-2 catalytic subunit (Sus scrofa); assay: m-calpain protease blockers, concentration series – biochemical, fluorogenic peptide substrate, dose response (AID 1420); type: functional
Sequence (P43367 whole entry): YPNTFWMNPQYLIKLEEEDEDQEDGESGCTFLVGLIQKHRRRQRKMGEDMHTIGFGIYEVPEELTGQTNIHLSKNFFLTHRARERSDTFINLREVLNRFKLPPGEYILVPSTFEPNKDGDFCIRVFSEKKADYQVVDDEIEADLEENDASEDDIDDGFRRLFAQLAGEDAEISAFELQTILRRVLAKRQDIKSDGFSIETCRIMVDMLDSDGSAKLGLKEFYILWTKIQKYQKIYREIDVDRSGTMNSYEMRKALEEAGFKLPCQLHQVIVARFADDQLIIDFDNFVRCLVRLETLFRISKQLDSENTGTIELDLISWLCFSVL

[Q] Any idea what IC50 was measured for `CC(C)(C)OC(=O)NCCCC[C@H](NC(=O)c1[nH]cnc1C(=O)NCc1ccccc1)C(=O)OC(C)(C)C` ?
[A] 10.5 µM (not active)

[Q] Okay, and `COc1cc(CNc2ccc(O)cc2)cc(Br)c1OCc1ccccc1` ?
[A] 13 µM (not active)

[Q] Okay, and `N#CC(C#N)=C(N)CSc1cccc[n+]1[O-]` ?
[A] > 50 µM (not active)

[Q] Okay, and `O=[N+]([O-])c1cc(/C=N/n2cnnc2)ccc1N1CCCC1` ?
[A] 36.6 µM (not active)

---

target: Trypsin (Sus scrofa, UniProt P00761); test: trypsin protease activity blockade – biochemical, quenched peptide fluorescence, cherry-pick, selectivity assay for Rce1 protease inhibitor project, dose response (AID 488789)
Sequence (P00761 whole entry): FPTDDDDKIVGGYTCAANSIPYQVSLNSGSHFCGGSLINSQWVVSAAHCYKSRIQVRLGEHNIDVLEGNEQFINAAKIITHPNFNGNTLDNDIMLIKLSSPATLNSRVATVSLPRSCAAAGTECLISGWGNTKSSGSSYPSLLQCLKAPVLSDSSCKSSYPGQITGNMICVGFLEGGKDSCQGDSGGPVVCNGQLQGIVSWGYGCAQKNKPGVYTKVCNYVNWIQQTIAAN
The source made the active and inactive calls.
Assay endpoint: AC50

Illustrative cases are given below, each with its answer.
COc1ccc(C2CC(c3ccc4ccccc4c3)=NN2C(=O)CNC2CCCCC2)cc1 (centres undefined) ... > 100 µM (inactive)
CC(C)OCCCNC(=O)c1c(N)n(CC2CCCO2)c2nc3ccccc3nc12 (centres undefined) ... 5.99 µM (active)
COC(=O)Cc1c(C)c2ccc(OCc3nn[nH]n3)c(C)c2oc1=O ... 21.3 µM (active)

Now examine the next entry.
[Q] Any idea what AC50 was measured for `COCCCn1c(N)c(C(=O)NCc2ccco2)c2nc3ccccc3nc21` ?
[A] 10.3 µM (active)

---

Measured EC50, listed per entry for reference.
Target: Zinc finger protein mex-5 (Caenorhabditis elegans, UniProt Q9XUB2)
Sequence (Q9XUB2 whole entry): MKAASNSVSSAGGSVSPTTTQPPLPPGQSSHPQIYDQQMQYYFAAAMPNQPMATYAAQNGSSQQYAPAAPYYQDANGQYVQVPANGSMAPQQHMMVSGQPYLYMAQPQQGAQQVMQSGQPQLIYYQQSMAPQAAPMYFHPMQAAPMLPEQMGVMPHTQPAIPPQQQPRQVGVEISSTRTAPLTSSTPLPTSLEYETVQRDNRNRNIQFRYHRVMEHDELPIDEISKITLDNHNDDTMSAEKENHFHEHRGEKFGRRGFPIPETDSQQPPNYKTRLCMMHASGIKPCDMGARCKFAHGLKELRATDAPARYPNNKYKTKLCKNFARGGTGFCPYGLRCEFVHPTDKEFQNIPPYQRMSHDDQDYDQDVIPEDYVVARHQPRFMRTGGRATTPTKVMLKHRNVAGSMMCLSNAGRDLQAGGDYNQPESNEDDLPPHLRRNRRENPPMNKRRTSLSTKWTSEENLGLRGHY
Test: potency of MEX-5 RNA-binding blockers – biochemical, C. elegans, fluorescence polarization, dose response (AID 1960)
Activity calls are given as the source filed them.

[Q] Any idea what EC50 was measured for `Cc1cc(/C=N/n2cnnc2)c(C)n1-c1ccc(C(=O)O)cc1` ?
[A] > 300 µM (not active)

[Q] Okay, and CCOc1cc(C2C(C#N)=C(N)OC(C)=C2C(C)=O)cc(Br)c1O (stereo not given) ?
[A] 12.3 µM (active)

[Q] Okay, and `CCN(CC)c1ccc(/C=C/C(=O)c2ccc(Br)cc2)cc1` ?
[A] 13.5 µM (inconclusive)

[Q] Okay, and Cc1ccc(/C=C2\C(=O)NC(=O)N(CC3CCCO3)C2=O)s1 (stereo not given) ?
[A] > 300 µM (not active)

[Q] Okay, and `CCc1c(C)nc(SCC(=O)NNC(=O)c2ccco2)[nH]c1=O` ?
[A] 10.1 µM (active)

[Q] Okay, and `Cc1n[nH]c(O)c1C(c1ccc(-c2ccccc2C(=O)O)o1)c1c(C)n[nH]c1O` ?
[A] 37 µM (active)

[Q] Okay, and `Cc1ccc(-c2ccc(CCC(=O)O)n2-c2ccc(C(=O)O)cc2)cc1` ?
[A] > 300 µM (not active)

[Q] Okay, and CC1(C)CC(=O)C2=C(C1)OC(N)=C(C#N)C2c1ccc(OC(=O)N2CCOCC2)cc1 (stereo not given) ?
[A] > 300 µM (not active)

[Q] Okay, and `O=C1NC(=O)/C(=C2\C(=O)Nc3ccc(Br)cc32)S1` ?
[A] 11 µM (active)

[Q] Okay, and `Cc1ccc(/C=C2/C(=O)c3ccc(C(=O)O)cc3C2=O)o1` ?
[A] 63.6 µM (active)

[Q] Okay, and COc1cccc(C2C3CN(C)CC=C3C(C#N)=C(N)C2(C#N)C#N)c1OC (stereo not given) ?
[A] 8.49 µM (active)

[Q] Okay, and CC1(OC(=O)C2CCCC2)C(=O)C=C2C=C(C3CC3)OC=C2C1=O (stereo not given) ?
[A] > 300 µM (not active)

[Q] Okay, and `CCn1c(CNC(=O)c2ccc(Cl)cc2)nnc1SCC(=O)N1CCOCC1` ?
[A] > 300 µM (not active)

[Q] Okay, and COc1ccc(C2=CC3=CC(=O)C(C)(O)C(=O)C3=CO2)cc1 (stereo not given) ?
[A] 25.5 µM (active)

[Q] Okay, and Cc1cc(N2C(=O)C(O)=C(C(=O)c3cc4ccccc4o3)C2c2ccc([N+](=O)[O-])cc2)no1 (stereo not given) ?
[A] 45.4 µM (active)

Source of measurements: ChEMBL document CHEMBL1201862
